# target or system: JAK1(JH2) (Homo sapiens, UniProt P23458)
# Sequence (P23458 583-855 limits assumed): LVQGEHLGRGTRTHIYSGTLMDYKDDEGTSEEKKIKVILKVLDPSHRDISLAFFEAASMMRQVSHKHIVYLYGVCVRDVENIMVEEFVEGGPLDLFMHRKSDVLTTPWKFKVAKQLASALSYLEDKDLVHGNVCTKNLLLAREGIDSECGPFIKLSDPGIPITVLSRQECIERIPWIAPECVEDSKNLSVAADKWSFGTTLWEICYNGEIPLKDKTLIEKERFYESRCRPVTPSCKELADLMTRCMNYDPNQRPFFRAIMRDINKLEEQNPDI
# assay details: Pseudokinase (JH2) experiment with Tb/Tracer, JAK1-JH2
# Format: binding
# measurement parameters: pseudokinase domain
property: pIC50
Conceptually, pIC50 converts a concentration in mol/L into minus its log10.

Notebook: [2H]C([2H])([2H])NC(=O)c1nnc(NC(=O)C2CC2)cc1Nc1ncccc1S(=O)(=O)C1CC1 [Compound 3] , pIC50 read as 7.27

###

# target or system: JAK1(JH1) (Homo sapiens)
# Construct: JAK1-JH1 (the kinase domain of JAK1)
# Sequence (P23458 875-1153 limits assumed): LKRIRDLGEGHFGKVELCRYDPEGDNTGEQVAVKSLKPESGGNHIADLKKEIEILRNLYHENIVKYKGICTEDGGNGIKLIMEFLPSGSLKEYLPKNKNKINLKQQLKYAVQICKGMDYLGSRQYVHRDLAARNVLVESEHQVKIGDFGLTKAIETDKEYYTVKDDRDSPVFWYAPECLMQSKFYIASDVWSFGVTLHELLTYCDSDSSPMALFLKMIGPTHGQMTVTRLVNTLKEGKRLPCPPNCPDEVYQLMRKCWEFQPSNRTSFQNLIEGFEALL
# assay details: Kinase (JH1) experiment, JAK1(JH1)
# measurement parameters: kinase domain
property: pIC50
A value of pIC50 is the negative decimal logarithm of a concentration given in moles per litre.

The compound listed as "[2H]C([2H])([2H])NC(=O)c1nnc(NC(=O)C2CC2)cc1Nc1ncccc1S(=O)(=O)C1CC1" has a reported pIC50 of 5.50

###

# Test system: pSTAT5 in CD3+ cells (IFN-α stimulated)
# assay details: Inhibition of IFN-α-induced pSTAT5 expression in CD3+ cells of human whole blood, FACS detection
# Format: cell-based
# measurement parameters: 0.25 h, fresh human whole blood, IFN-α 20 ng/ml, 15 minutes
pIC50: −log10 of the molar value.
Parameter threshold = 6. Response is fulfilled when pIC50 meets or exceeds it, else not fulfilled.

Asked: Textbook exercise: given the entry [2H]C([2H])([2H])NC(=O)c1nnc(NC(=O)C2CC23CC3)cc1Nc1nccnc1S(=O)(=O)C1CC1 (stereo not drawn) , state whether its pIC50 is greater than or equal to 6.
Given back: not fulfilled

Asked: # bool: pIC50 of "[2H]C([2H])([2H])NC(=O)c1nnc(NC(=O)C2CC2)cc1Nc1ncccc1S(=O)(=O)C1CC1" >= 6
Given back: fulfilled

Asked: Could you please find out whether "[2H]C([2H])([2H])NC(=O)c1nnc(NC(=O)C2CC2)cc1Nc1ccccc1S(=O)(=O)C1CC1" has pIC50 that meets 6 or exceeds it?
Given back: not fulfilled

Asked: Reported pIC50 at or above 6? [2H]C([2H])([2H])NC(=O)c1nnc(NC(=O)C2CC23CC3)cc1Nc1ncccc1S(=O)(=O)C1CC1 (stereo not drawn)
Given back: fulfilled

Asked: Hi team, for "[2H]C([2H])([2H])NC(=O)c1cnc(NC(=O)C2CC2)cc1Nc1ncccc1S(=O)(=O)C1CC1" , is the recorded pIC50 at or above 6?
Given back: fulfilled

###

# target or system: TYK2(JH2) (Homo sapiens)
# Sequence (P29597 589-875 limits assumed): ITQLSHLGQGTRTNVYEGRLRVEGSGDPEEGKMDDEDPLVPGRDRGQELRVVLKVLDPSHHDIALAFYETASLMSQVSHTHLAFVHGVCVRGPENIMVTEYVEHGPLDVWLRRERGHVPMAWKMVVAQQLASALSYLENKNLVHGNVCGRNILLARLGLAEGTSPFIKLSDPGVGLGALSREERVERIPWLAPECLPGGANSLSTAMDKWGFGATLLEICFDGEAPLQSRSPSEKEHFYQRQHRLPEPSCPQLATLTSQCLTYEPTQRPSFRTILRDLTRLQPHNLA
# assay details: Pseudokinase (JH2) experiment with Tb/Tracer, TYK2-JH2
# measurement parameters: pseudokinase domain
property: pIC50
pIC50 here: minus log base 10 of the concentration, concentration in moles per litre.

Notebook: "[2H]C([2H])([2H])NC(=O)c1nnc(NC(=O)C2CC2)cc1Nc1ncccc1S(=O)(=O)C1CC1" , pIC50 read as 9.49

###

# target or system: TYK2(JH1) (Homo sapiens, UniProt P29597)
# Construct: TYK2-JH1 (the kinase domain of TYK2)
# Sequence (P29597 897-1176 limits assumed): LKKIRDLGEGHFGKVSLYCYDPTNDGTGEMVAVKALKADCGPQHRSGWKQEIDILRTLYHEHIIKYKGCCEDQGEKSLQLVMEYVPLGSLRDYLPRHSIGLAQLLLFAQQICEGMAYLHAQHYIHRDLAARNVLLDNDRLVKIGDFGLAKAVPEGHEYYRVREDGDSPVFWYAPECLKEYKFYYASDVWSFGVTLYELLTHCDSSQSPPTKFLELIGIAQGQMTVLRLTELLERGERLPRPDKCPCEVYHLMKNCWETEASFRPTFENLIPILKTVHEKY
# assay details: Kinase (JH1) experiment, TYK2(JH1)
# measurement parameters: kinase domain
property: IC50 (µM)
# output: bare number, implied unit µM

The recorded IC50 for entry "[2H]C([2H])([2H])NC(=O)c1nnc(NC(=O)C2CC2)cc1Nc1ncccc1S(=O)(=O)C1CC1" equals 4.31
